Measured values drawn from patent US11427593B2 for this set.

Test system: MM.1S cells
Assay: MM.1S cell growth inhibition assay (CellTiter Glo, 96 h)
Type: cell-based
Conditions: MM.1S multiple myeloma cells
measure: pIC50
Scale for pIC50: -log10 of concentration given in mol/L; no unit attached.

Answer with reported pIC50 of Cc1sc2c(c1C)C(c1ccc(Cl)cc1)=N[C@@H](CC(=O)OC(C)(C)C)c1nnc(C)n1-2 [JQ1, reference compound]
6.74

----------
Tested on: MM.1S cells
Assay: MM.1S cell growth inhibition assay (CellTiter Glo, 96 h)
Assay type: cell-based
Conditions: Homo sapiens, MM1.S, MM.1S multiple myeloma cells
Procedure: The cell suspension was pipetted into a 15 mL centrifuge tube, and centrifuged at 800 rpm for 3 minutes. The supernatant was discarded. 2 mL of culture medium was added to the centrifuge tube, and the cells were resuspended evenly by gentle pipetting. The cell density was measure by a hemacytometer. Then the cell suspension was diluted to 50,000 cells/mL. […]
Listed compounds paired with reported pIC50
Scale for pIC50: -log10 of concentration given in mol/L; no unit attached.

For orientation, consider the following solved cases.
sample.smiles	pIC50
CCS(=O)(=O)Cc1ccc(Oc2ccc(F)cc2F)c(-c2cc(C)c3c(=O)[nH]ccn23)c1	7.15
CCS(=O)(=O)Nc1ccc(Oc2ccc(F)cc2F)c(-c2cc(C)c3c(=O)[nH]ccn23)c1	7.28
Cc1cc(-c2cc(CS(C)(=O)=O)ccc2Oc2ccc(F)cc2F)n2cc[nH]c(=O)c12	7.19
Cc1cc(-c2cc(NS(C)(=O)=O)cnc2OC2CCCCC2)n2cc[nH]c(=O)c12	7.27
Cc1cc(-c2cc(CS(C)(=O)=O)cnc2Oc2ccc(F)cc2F)n2cc[nH]c(=O)c12	7.13
Cc1cc(-c2cc(CS(C)(=O)=O)cnc2OC2CCCCC2)n2cc[nH]c(=O)c12	7.59
CCS(=O)(=O)Cc1cnc(Oc2ccc(F)cc2F)c(-c2cc(C)c3c(=O)[nH]ccn23)c1	7.85
Cc1cc(-c2cc(NS(C)(=O)=O)ccc2OC2CCCCC2)n2cc[nH]c(=O)c12	7.41

Let us examine a further case.
Output reported pIC50 of the compound `Cc1cc(-c2cc(CS(C)(=O)=O)ccc2OC2CCCCC2)n2cc[nH]c(=O)c12` on MM.1S cells.
7.64

----------
Listed molecules paired with reported pIC50
Biological target: BRD4_BD1 (49-170) protein (Homo sapiens (Human))
Assay: AlphaScreen assay: inhibition of binding of BRD4 bromodomain BD1 to acetylated histone H4 polypeptide
Conditions: BRD4 BD1 vs acetylated H4 polypeptide, read-out: ALPHA IC50
Scale for pIC50: -log10 of concentration given in mol/L; no unit attached.

sample.smiles	subject.of.test	data.value
Cc1cc(-c2cc(NS(C)(=O)=O)ccc2Oc2cccnc2)n2cc[nH]c(=O)c12	BRD4_BD1 (49-170) protein (Homo sapiens (Human))	7.85
Cc1cc(-c2cc(NS(C)(=O)=O)ccc2Oc2cccnc2)n2cn[nH]c(=O)c12	BRD4_BD1 (49-170) protein (Homo sapiens (Human))	7.44
CCS(=O)(=O)Cc1ccc(Oc2ccc(F)cc2F)c(-c2cc(C)c3c(=O)[nH]ccn23)c1	BRD4_BD1 (49-170) protein (Homo sapiens (Human))	8.06
Cc1cc(-c2cc(S(C)(=O)=O)ccc2Nc2ccccc2)n2cc[nH]c(=O)c12	BRD4_BD1 (49-170) protein (Homo sapiens (Human))	6.49

Let us examine a further case.
Answer with reported pIC50 of `CCS(=O)(=O)Cc1cnc(Oc2ccc(F)cc2F)c(-c2cc(C)c3c(=O)[nH]ncn23)c1`
7.84
